- Test system: P. berghei ANKA strain
- protocol notes: Divided 3x3 mg/kg and 3x1 mg/kg po doses in infected mice
- Format: in vivo, Plasmodium berghei
- measurement conditions: 3 × 1 mg/kg p.o. SSV on days 1, 2, 3 post-infection; percent reduction of parasitemia vs control on day 4
endpoint label: Activity (%)

compound="O=C1CN(C(=O)CC2CCC3(CC2)OOC2(O3)C3CC4CC(C3)CC2C4)CCN1 (stereo not shown) [compound 296]" endpoint_result=49
compound="O=c1ccn(CC2CCC3(CC2)OOC2(O3)C3CC4CC(C3)CC2C4)cc1 (stereo not shown) [compound 302]" endpoint_result=87
compound="CS(=O)(=O)O.NCCOc1ccc(C2CCC3(CC2)OOC2(O3)C3CC4CC(C3)CC2C4)cc1 (stereo not shown) [compound 323]" endpoint_result=66
compound="NC1(C(=O)NCC2CCC3(CC2)OOC2(O3)C3CC4CC(C3)CC2C4)CCCC1 (stereo not shown) [compound 317]" endpoint_result=73

* * *

- System: ANKA strain of P. berghei
- protocol notes: Single dose STI in vivo screen in infected mice
- Design: species or system Plasmodium berghei
- measurement conditions: single 10 mg/kg po in SSV; untreated 6-7 days
Structures can show the parent of a compound that is named as a salt.
Items are presented alongside their recorded Survival (days) 10 mg/kg SSV po.
endpoint label: Survival (days) 10 mg/kg SSV po

compound="CC(C)(C)NC(=O)N[C@H]1CC[C@]2(CC1)OOC1(O2)C2CC3CC(C2)CC1C3 (stereo partly drawn)" endpoint_label="Survival (days) 10 mg/kg SSV po" endpoint_result=7.0
compound="O=C(NC[C@H]1CC[C@]2(CC1)OOC1(O2)C2CC3CC(C2)CC1C3)c1ccncc1 (stereo partly drawn)" endpoint_label="Survival (days) 10 mg/kg SSV po" endpoint_result=8.7
compound="CC(C)N(C(=O)N1CCC2(CC1)OOC1(O2)C2CC3CC(C2)CC1C3)C(C)C (stereo not drawn)" endpoint_label="Survival (days) 10 mg/kg SSV po" endpoint_result=8.0
compound=NC(=O)C1CCN(C(=O)C[C@H]2CC[C@]3(CC2)OO[C@]2(O3)C3CC4CC(C3)CC2C4)CC1 endpoint_label="Survival (days) 10 mg/kg SSV po" endpoint_result=8.6
compound=Cc1ccc(S(=O)(=O)O)cc1.N[C@H]1CC[C@H](NC(=O)C[C@H]2CC[C@]3(CC2)OO[C@]2(O3)C3CC4CC(C3)CC2C4)CC1 endpoint_label="Survival (days) 10 mg/kg SSV po" endpoint_result=11.2
compound="O=C(Nc1ccccc1)N1CCC2(CC1)OOC1(O2)C2CC3CC(C2)CC1C3 (stereo not drawn)" endpoint_label="Survival (days) 10 mg/kg SSV po" endpoint_result=6.7
compound="C1C2CC3CC1CC(C2)C31OOC2(CCC3(CC2)OOC2(O3)C3CC4CC(C3)CC2C4)O1 (stereo not drawn)" endpoint_label="Survival (days) 10 mg/kg SSV po" endpoint_result=6.7
compound="O=C(C[C@H]1CC[C@]2(CC1)OOC1(O2)C2CC3CC(C2)CC1C3)Nc1nccs1 (stereo partly drawn)" endpoint_label="Survival (days) 10 mg/kg SSV po" endpoint_result=6.0
compound="Oc1ccc([C@H]2CC[C@]3(CC2)OOC2(O3)C3CC4CC(C3)CC2C4)cc1 (stereo partly drawn)" endpoint_label="Survival (days) 10 mg/kg SSV po" endpoint_result=11.0
compound="COC(=O)c1cn(C[C@H]2CC[C@]3(CC2)OOC2(O3)C3CC4CC(C3)CC2C4)cn1 (stereo partly drawn)" endpoint_label="Survival (days) 10 mg/kg SSV po" endpoint_result=5.7
compound="O=C(NO)c1ccc([C@H]2CC[C@]3(CC2)OOC2(O3)C3CC4CC(C3)CC2C4)cc1 (stereo partly drawn)" endpoint_label="Survival (days) 10 mg/kg SSV po" endpoint_result=6.0
compound="CC1(C)CC(NC2CCC3(CC2)OOC2(O3)C3CC4CC(C3)CC2C4)CC(C)(C)N1 (stereo not drawn) [OZ171, dihydrochloride]" endpoint_label="Survival (days) 10 mg/kg SSV po" endpoint_result=7.0
compound="O=C([C@H]1CC[C@]2(CC1)OOC1(O2)C2CC3CC(C2)CC1C3)N1CCN(c2ccccc2)CC1 (stereo partly drawn) [OZ140, hydrochloride]" endpoint_label="Survival (days) 10 mg/kg SSV po" endpoint_result=6.3
compound="CCOC(=O)c1ccc(OC[C@H]2CC[C@]3(CC2)OOC2(O3)C3CC4CC(C3)CC2C4)cc1 (stereo partly drawn)" endpoint_label="Survival (days) 10 mg/kg SSV po" endpoint_result=6.3
compound="O=C(OC[C@H]1CC[C@]2(CC1)OOC1(O2)C2CC3CC(C2)CC1C3)N1CCN(c2ccccc2)CC1 (stereo partly drawn)" endpoint_label="Survival (days) 10 mg/kg SSV po" endpoint_result=7.7
compound=O=C(O)CCC(=O)NC[C@H]1CC[C@]2(CC1)OO[C@]1(O2)C2CC3CC(C2)CC1C3 endpoint_label="Survival (days) 10 mg/kg SSV po" endpoint_result=6.8
compound="CCCCCCCCS(=O)(=O)N1CCC2(CC1)OOC1(O2)C2CC3CC(C2)CC1C3 (stereo not drawn)" endpoint_label="Survival (days) 10 mg/kg SSV po" endpoint_result=5.7
compound="CC(C)(O)[C@H]1CC[C@]2(CC1)OOC1(O2)C2CC3CC(C2)CC1C3 (stereo partly drawn)" endpoint_label="Survival (days) 10 mg/kg SSV po" endpoint_result=5.0
compound="O=C(OCCn1ccnc1)C1CCC2(CC1)OOC1(O2)C2CC3CC(C2)CC1C3 (stereo not drawn)" endpoint_label="Survival (days) 10 mg/kg SSV po" endpoint_result=7.3
compound="CCCCS(=O)(=O)N1CCC2(CC1)OOC1(O2)C2CC3CC(C2)CC1C3 (stereo not drawn)" endpoint_label="Survival (days) 10 mg/kg SSV po" endpoint_result=6.3
compound="COC(=O)c1ccc(C[C@H]2CC[C@]3(CC2)OOC2(O3)C3CC4CC(C3)CC2C4)cc1 (stereo partly drawn)" endpoint_label="Survival (days) 10 mg/kg SSV po" endpoint_result=6.3
compound="CC(=O)OC[C@H]1CC[C@]2(CC1)OOC1(O2)C2CC3CC(C2)CC1C3 (stereo partly drawn)" endpoint_label="Survival (days) 10 mg/kg SSV po" endpoint_result=8.0
compound="COCC(=O)N(C1CCCCC1)C1CCC2(CC1)OOC1(O2)C2CC3CC(C2)CC1C3 (stereo not drawn)" endpoint_label="Survival (days) 10 mg/kg SSV po" endpoint_result=7.3
compound="O=C1CNC(=O)N1C[C@H]1CC[C@]2(CC1)OOC1(O2)C2CC3CC(C2)CC1C3 (stereo partly drawn)" endpoint_label="Survival (days) 10 mg/kg SSV po" endpoint_result=8.7
compound="O=C1c2ccccc2C(=O)N1CC1(c2ccccc2)CCC2(CC1)OOC1(O2)C2CC3CC(C2)CC1C3 (stereo not drawn)" endpoint_label="Survival (days) 10 mg/kg SSV po" endpoint_result=5.3
compound=CS(=O)(=O)N(CC(N)=O)C[C@H]1CC[C@]2(CC1)OO[C@]1(O2)C2CC3CC(C2)CC1C3 endpoint_label="Survival (days) 10 mg/kg SSV po" endpoint_result=7.8
compound=O=C(C[C@H]1CC[C@]2(CC1)OO[C@]1(O2)C2CC3CC(C2)CC1C3)NCCN1CCOCC1 endpoint_label="Survival (days) 10 mg/kg SSV po" endpoint_result=10.4
compound="CN(C)C(=O)N1CCC2(CC1)OOC1(O2)C2CC3CC(C2)CC1C3 (stereo not drawn)" endpoint_label="Survival (days) 10 mg/kg SSV po" endpoint_result=7.3
compound="c1ccc2c(c1)OCCC21OOC2(O1)C1CC3CC(C1)CC2C3 (stereo not drawn)" endpoint_label="Survival (days) 10 mg/kg SSV po" endpoint_result=6.0
compound=Cn1nnnc1SC[C@H]1CC[C@]2(CC1)OO[C@]1(O2)C2CC3CC(C2)CC1C3 endpoint_label="Survival (days) 10 mg/kg SSV po" endpoint_result=9.0
compound=NC(=O)c1cncn1C[C@H]1CC[C@]2(CC1)OO[C@]1(O2)C2CC3CC(C2)CC1C3 endpoint_label="Survival (days) 10 mg/kg SSV po" endpoint_result=14.0
compound=c1cnc(NC[C@H]2CC[C@]3(CC2)OO[C@]2(O3)C3CC4CC(C3)CC2C4)nc1 endpoint_label="Survival (days) 10 mg/kg SSV po" endpoint_result=7.4

Source listed as patent US6825230B2.
